These measurements were taken from paper PMC3605901.

test: Microsomal stability assay; settings: mouse, microsomes
Listed next: entries and their corresponding half-life at 1 μM.
Number in min, nothing else.

C=CCn1c([S+]([O-])CC)nc2c(c1=O)C(C)(C)Cc1ccc(OC)cc1-2 (stereo not shown) : 2.8
CCSc1nc2c(c(=O)n1C)C(C)(C)Cc1ccc(OC)cc1-2 [12m] : 1.7
C=CCn1c(S(=O)(=O)CC)nc2c(c1=O)C(C)(C)Cc1ccc(OC)cc1-2 : 3.8

Attention now turns to another entry.
Field request: half-life at 1 μM | item: C=CCn1c(SCC(F)(F)F)nc2c(c1=O)C(C)(C)Cc1ccc(OC)cc1-2 [12l]
4.8
